- measurementProtocol: Acute toxicity (M) LD 50
- particulars: in vivo; mouse, PO
Where a name gives a salt, the structure may show the parent alone.
Flag rule - LD50 less than 700 mg/kg flags True; the remaining entries get False.

O=C(O)C1N=C(c2ccccc2)c2cc([N+](=O)[O-])ccc2NC1=O (centres unmarked) [4336 CB, potassium salt] = False
CNC1=Nc2ccc(Cl)cc2C(c2ccccc2)=[N+]([O-])C1 [Chlordiazepoxide, reference compound] = True
O=C([O-])C1N=C(c2ccccc2)c2cc(Cl)ccc2NC1=O.[K+] (centres unmarked) = False

Below: the item to evaluate.
Prompt: Dear colleague, could you confirm whether LD50 of O=C(O)C1N=C(c2ccccc2)c2cc([N+](=O)[O-])ccc2NC1=O.[K+].[K+].[OH-].[OH-] (centres unmarked) falls below 700 mg/kg? Thanks.
Response: True
